UniProtKB P06239 data, read-out IC50
Sequence (P06239 whole entry): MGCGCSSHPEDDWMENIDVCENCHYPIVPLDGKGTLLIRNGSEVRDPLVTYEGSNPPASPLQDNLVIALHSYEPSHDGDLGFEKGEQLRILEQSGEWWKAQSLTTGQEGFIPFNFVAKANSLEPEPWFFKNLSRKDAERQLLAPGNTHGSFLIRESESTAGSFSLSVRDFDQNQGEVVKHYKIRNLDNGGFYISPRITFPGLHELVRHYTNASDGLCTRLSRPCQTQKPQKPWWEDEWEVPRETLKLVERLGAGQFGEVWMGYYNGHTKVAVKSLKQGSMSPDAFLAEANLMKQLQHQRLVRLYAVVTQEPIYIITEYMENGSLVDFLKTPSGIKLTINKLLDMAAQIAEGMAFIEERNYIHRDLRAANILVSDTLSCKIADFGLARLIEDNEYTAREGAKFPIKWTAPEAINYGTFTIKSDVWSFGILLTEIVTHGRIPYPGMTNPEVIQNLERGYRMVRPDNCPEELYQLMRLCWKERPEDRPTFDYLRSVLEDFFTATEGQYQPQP
PROPERTY: IC50 (nM)

>>> quantitative_result("CCC(O)(CC)c1ccc2cc(-c3n[nH]c4cc(-c5ccccc5)sc34)[nH]c2c1")
203
>>> quantitative_result("CCC(O)(CC)c1ccc2cc(-c3n[nH]c4cc(C(F)F)sc34)[nH]c2c1")
39.2
>>> quantitative_result("CCC(O)(CC)c1ccc2c(-c3ccc(OC)cc3)c(-c3n[nH]c4ccsc34)[nH]c2c1")
3180
>>> quantitative_result("CC(C)(O)c1ccc2cc(-c3n[nH]c4ccsc34)[nH]c2c1")
63.9

---

Reported IC50 by item:
Target sequence: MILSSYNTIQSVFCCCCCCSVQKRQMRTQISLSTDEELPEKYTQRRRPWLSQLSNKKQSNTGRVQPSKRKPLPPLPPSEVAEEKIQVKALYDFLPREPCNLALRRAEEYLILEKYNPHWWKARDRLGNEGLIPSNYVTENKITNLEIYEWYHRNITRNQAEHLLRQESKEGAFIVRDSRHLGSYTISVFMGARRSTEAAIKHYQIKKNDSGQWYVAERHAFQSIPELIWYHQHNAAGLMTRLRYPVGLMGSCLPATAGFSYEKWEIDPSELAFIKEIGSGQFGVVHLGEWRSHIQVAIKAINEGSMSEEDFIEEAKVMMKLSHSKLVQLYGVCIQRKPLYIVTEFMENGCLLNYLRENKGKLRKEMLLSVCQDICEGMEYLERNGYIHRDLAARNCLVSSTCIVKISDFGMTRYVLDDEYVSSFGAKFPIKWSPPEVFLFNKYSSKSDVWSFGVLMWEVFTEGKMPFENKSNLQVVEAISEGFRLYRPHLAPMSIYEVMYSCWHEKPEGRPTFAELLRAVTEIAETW
PROPERTY: IC50 (nM)

>>> quantitative_result("CCC(O)(CC)c1ccc2cc(-c3n[nH]c4cc(-c5ccccc5)sc34)[nH]c2c1")
441
>>> quantitative_result("CCC(O)(CC)c1ccc2cc(-c3n[nH]c4cc(C(F)F)sc34)[nH]c2c1")
77.5
>>> quantitative_result("CCC(O)(CC)c1ccc2cc(-c3n[nH]c4ccsc34)[nH]c2c1")
66.5
>>> quantitative_result("CCC(O)(CC)c1ccc2c(-c3ccc(OC)cc3)c(-c3n[nH]c4ccsc34)[nH]c2c1")
241

Values compiled from ChEMBL document CHEMBL2016436.
